Data provenance: patent US20250084172A1

Biological target: T1, human soluble ULBP6 haplotype 02 (hULBP6_02) (human, UniProt Q5VY80 26-218)
T1 construct: also called sULBP6_02
T1 chain: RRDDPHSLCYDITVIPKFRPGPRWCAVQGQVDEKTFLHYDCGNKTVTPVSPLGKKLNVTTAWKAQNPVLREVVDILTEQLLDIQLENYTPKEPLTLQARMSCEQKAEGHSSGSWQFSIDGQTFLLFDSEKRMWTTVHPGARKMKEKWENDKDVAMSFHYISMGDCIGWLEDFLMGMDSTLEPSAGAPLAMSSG
Assay: blocking ELISA; hNKG2D coated, antibody titrated with biotinylated hULBP6_02
pIC50: −log10 of the molar value.
Documented pIC50 across a set of binders
MEASURE: pIC50

{"BINDER": "Humanized 6E1 (h6E1) (E-) (antibody, human IgG1, kappa, N297G, V domains shown, hIgG1 with N297G (effector negative)) VH: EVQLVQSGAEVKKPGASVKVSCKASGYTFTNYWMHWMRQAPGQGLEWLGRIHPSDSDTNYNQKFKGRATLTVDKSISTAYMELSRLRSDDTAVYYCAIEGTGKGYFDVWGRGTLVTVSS VL: DIQMTQSPSSLSASVGDRVTITCKASQDIYSYLSWFQQKPGKSPKTLIYRANRLVDGVPSRFSGSGSGQDFTLTISSLQPEDFATYYCLHYDEFPLTFGGGTKVEIKR", "READOUT NUMBER": 9.99}
{"BINDER": "Humanized 7B3 (h7B3) (E-) (antibody, human IgG1, kappa, N297G, V domains shown, hIgG1 with N297G (effector negative)) VH: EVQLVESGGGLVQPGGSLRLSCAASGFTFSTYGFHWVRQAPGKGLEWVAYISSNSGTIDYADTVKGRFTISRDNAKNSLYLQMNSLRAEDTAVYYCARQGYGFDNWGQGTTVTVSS VL: DIQLTQSPSSLSASVGDRVTITCSASSRVSYMNWYQQKPGKSPKIWVYGISNLASGVPSRFSGSGSGTDFTFTISSLQPEDIATYYCQQRSSHPLTFGGGTKVEIKR", "READOUT NUMBER": 10.55}
{"BINDER": "Humanized 8E11 (h8E11) (E-) (antibody, human IgG1, kappa, N297G, V domains shown, hIgG1 with N297G (effector negative)) VH: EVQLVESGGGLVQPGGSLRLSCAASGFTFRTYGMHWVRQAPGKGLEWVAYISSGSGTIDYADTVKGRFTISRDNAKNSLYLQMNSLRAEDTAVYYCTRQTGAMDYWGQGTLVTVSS VL: EIVLTQSPATLSLSPGERATLSCSASSSVSYMNWYQQKPGQSPRLWIYGISNLASGVPARFSGSGSGTDFTLTISSLEPEDFAVYYCQQRSSHPLTFGGGTKVEIKR", "READOUT NUMBER": 10.46}
{"BINDER": "Humanized 1D4 (h1D4) (E-) (antibody, human IgG1, kappa, N297G, V domains shown, hIgG1 with N297G (effector negative)) VH: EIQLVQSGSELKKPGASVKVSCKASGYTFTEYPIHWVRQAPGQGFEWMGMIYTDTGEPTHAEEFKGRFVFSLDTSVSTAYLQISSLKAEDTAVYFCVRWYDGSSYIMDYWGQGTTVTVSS VL: DIQMTQSPSSLSASVGDRVTITCKASQDINSYLSWFQQKPGKSPKTLIYRANRLVDGVPSRFSGSGSGQDYTFTISSLQPEDIATYYCLQYDEFPLTFGGGTKVEIKR", "READOUT NUMBER": 9.58}
